- assay.method.text: NCI Yeast Anticancer Drug Screen. Data for the mec2-1 strain (AID 157)
- condition.context: S. cerevisiae mec2-1 strain, at 33.0 µM
This is part of a sample that, as a whole, favours compounds with a hit. Of some 79,000 tested, about 15% had one in any assay. The source made the active and inactive calls. No stated cut-off is given here; in the data, active means growth inhibition above about 70%; inactive means the rest. Starred links: 1 amine or outer side, 2 acyl side, 3 side chain; linkers in the order of their positions; H or OH if unused. Positions of bridges follow the written chain, without caps; N, C: chain ends. Non-standard residues stand in square brackets, D forms with d. Residues, ends and D or L forms follow the SMILES beside them. Chains are numbered I, II in the order given. Actinocin(9to1) = Cc1c2oc3c(C)ccc(C(=O)[*:1])c3nc-2c(C(=O)[*:2])c(N)c1=O; aThr = C[C@H](O)[C@H](N)C(=O)O; NMeV = CN[C@H](C(=O)O)C(C)C; Sar = CNCC(=O)O
Respond only with the outcome that fits, drawn from y for active, n for inactive

Exercise: Recorded call for CC1(C)CC(=O)C(C(CC(c2ccccc2)c2cc3c(cc2O)OCO3)C2=C(O)CC(C)(C)CC2=O)=C(O)C1 (stereo not drawn) ?
Solution: y

Exercise: Recorded call for CCCCCC/C(C)=N/Nc1ccc([N+](=O)[O-])cc1[N+](=O)[O-] ?
Solution: n

Exercise: Recorded call for O=c1[nH]cc(F)c(=O)[nH]1 ?
Solution: n

Exercise: Recorded call for CC1=NN(C(=O)CC(=O)N(C(=O)c2ccccc2)c2ccc(Cl)cc2)C(=O)C1N=Nc1ccc([N+](=O)[O-])cc1 (stereo not drawn) ?
Solution: n

Exercise: Recorded call for O=S(=O)(O)c1ccc2c(N=Nc3c(O)ccc4ccccc34)cccc2c1 ?
Solution: n

Exercise: Recorded call for Cc1ccc(S(=O)(=O)N/N=C/c2c(O)ccc3ccccc23)cc1 ?
Solution: n

Exercise: Recorded call for N=c1oc2ccccc2cc1-c1nc2ccccc2[nH]1 ?
Solution: n

Exercise: Recorded call for Cc1nc2ccc(Br)cc2c(=O)n1-c1ccc(NC2OCC(O)C(O)C2O)cc1 (stereo not drawn) ?
Solution: n

Exercise: Recorded call for O=C(Nc1ccn(C2CC(O)C(COC(c3ccccc3)(c3ccccc3)c3ccccc3)O2)c(=O)n1)c1ccccc1 (stereo not drawn) ?
Solution: y

Exercise: Recorded call for N=C(N)c1ccc(N=Nc2c(O)ccc3c2[nH]c2ccccc23)cc1 ?
Solution: y

Exercise: Recorded call for CC1C=CN(N(C)C)C2=C1C(=O)c1cnccc1C2=O (stereo not drawn) ?
Solution: y

Exercise: Recorded call for CCCCCC(=O)C(C)(c1nc2n(c1O)/C(=N/C(=O)Nc1ccc(Cl)cc1)N=N2)c1nc2n(c1O)/C(=N/C(=O)Nc1ccc(Cl)cc1)N=N2 ?
Solution: n

Exercise: Recorded call for Cc1c2oc3c(C)ccc(C(=O)N[C@@H]4C(=O)N[C@H](C(C)C)C(=O)N5CCC[C@H]5C(=O)N(C)CC(=O)N(C)[C@@H](C(C)C)C(=O)O[C@H]4C)c3nc-2c(C(=O)N[C@@H]2C(=O)N[C@H](C(C)C)C(=O)N3CCC[C@H]3C(=O)N(C)CC(=O)N(C)[C@@H](C(C)C)C(=O)O[C@H]2C)c(N)c1=O (I: [aThr][dV]P[Sar][NMeV] / II: [aThr][dV]P[Sar][NMeV]; ester I:1-I:C, II:1-II:C; linker I:N-II:N via Actinocin(9to1)) ?
Solution: y
